assay: solvent given as SMILES; details: in C=CCCCCCCC=C
Listed next: entries and their corresponding solvation free energy, 298 K.
Give me the value, and tack the unit on after it.

Some solved cases for reference:
{"columns": ["compound", "solvation free energy, 298 K"],
 "data": [
  ["O=C(O)c1ccc2ccccc2c1", "-9.58 kcal/mol"],
  ["O=CO", "-2.89 kcal/mol"],
  ["CCc1ccc(O)cc1", "-7.11 kcal/mol"],
  ["COc1ccc(CCN)cc1", "-9.4 kcal/mol"],
  ["Nc1ncnc2c1ncn2C1CCC(CO)O1 (configuration not stated)", "-14.8 kcal/mol"]
]}

For record O=C(O)c1ccccc1 the listed solvation free energy, 298 K is -6.26 kcal/mol

For record Nc1ncnc2c1ncn2C1CC(O)C(CO)O1 (configuration not stated) the listed solvation free energy, 298 K is -16.6 kcal/mol

----------
Listed next: entries and their corresponding solvation free energy, 298 K.
experiment: solvent given as SMILES; conditions: in S=C=S
I only need the number, in kcal/mol, no unit after it.

Some solved cases for reference:
{"columns": ["compound.string", "readout.number"],
 "data": [
  ["C1COCCO1", -4.62],
  ["ClC(Cl)Cl", -4.15],
  ["O", -1.01],
  ["CCC1CCCCC1", -5.65]
]}

Consider now this further molecule.
For record COCOC the listed solvation free energy, 298 K is -3.28

----------
experiment: solvent given as SMILES; conditions: in COC(C)=O
outcome.measure: solvation free energy, 298 K (kcal/mol)
I only need the number, in kcal/mol, no unit after it.

{"columns": ["compound", "solvation free energy, 298 K, kcal/mol"],
 "data": [
  ["Cc1c(C(=O)O)cc([N+](=O)[O-])cc1[N+](=O)[O-]", -16.7],
  ["O=[O+][O-]", -0.29],
  ["Cc1cccc(C(=O)O)c1", -9.99],
  ["c1ccc2c(c1)ccc1ccccc12", -11.1],
  ["COc1ccccc1C(=O)O", -11.3],
  ["C=CC=C", -2.26]
]}

For record Nc1ccc([N+](=O)[O-])cc1 the listed solvation free energy, 298 K is -13.2

For record [HH] the listed solvation free energy, 298 K is 1.42

For record c1nc[nH]n1 the listed solvation free energy, 298 K is -10.3

----------
experiment: solvent given as SMILES; conditions: in CC#N
Listed next: entries and their corresponding solvation free energy, 298 K.
I only need the number, in kcal/mol, no unit after it.

Some solved cases for reference:
{"columns": ["compound.string", "solvation free energy, 298 K, kcal/mol"],
 "data": [
  ["CC1CCCC1", -2.8],
  ["C=CCCCC", -2.96],
  ["C=CCCCCCC", -3.98],
  ["CC(C)CCO", -5.58],
  ["OC1CCCCC1", -6.37],
  ["ClC(Cl)Cl", -4.31]
]}

For record CC(C)O the listed solvation free energy, 298 K is -4.42

For record CCN(CC)CC the listed solvation free energy, 298 K is -3.66

For record C1COCCO1 the listed solvation free energy, 298 K is -5.28

For record [HH] the listed solvation free energy, 298 K is 1.45

For record CCCC the listed solvation free energy, 298 K is -1.49

For record CCC1CCCCC1 the listed solvation free energy, 298 K is -3.87

For record Cc1cccc(C)c1 the listed solvation free energy, 298 K is -5.18

For record CCC(C)(C)C the listed solvation free energy, 298 K is -2.32

----------
assay: solvent given as SMILES; conditions: in CC(C)(C)O
Param label: returns TRUE when solvation free energy, 298 K < -6 kcal/mol, returns FALSE otherwise, including exact equality.

Solved entries:
{"columns": ["compound", "assigned.label"],
 "data": [
  ["C1COCCO1", "FALSE"],
  ["CC(C)(C)Br", "FALSE"],
  ["CCN(CC)CC", "FALSE"]
]}

query: Does CCCC have solvation free energy, 298 K strictly under -6 kcal/mol?
result: FALSE

query: Does COC(C)(C)C have solvation free energy, 298 K strictly under -6 kcal/mol?
result: FALSE

query: Does CC(C)C have solvation free energy, 298 K strictly under -6 kcal/mol?
result: FALSE

query: Does CC(C)O have solvation free energy, 298 K strictly under -6 kcal/mol?
result: FALSE

query: Does CCCl have solvation free energy, 298 K strictly under -6 kcal/mol?
result: FALSE

query: Does c1ccc2c(c1)Cc1ccccc1-2 have solvation free energy, 298 K strictly under -6 kcal/mol?
result: TRUE

query: Does O=C(O)c1ccccc1O have solvation free energy, 298 K strictly under -6 kcal/mol?
result: TRUE

----------
test: solvent given as SMILES; details: in CCCCOC(C)=O
Cut-off -9 kcal/mol on solvation free energy, 298 K, inclusive. At or above means y; below means n.

Solved entries:
{"columns": ["molecule", "assigned.label"],
 "data": [
  ["Clc1c(Cl)c(Cl)c(Cl)c(Cl)c1Cl", "n"],
  ["[HH]", "y"]
]}

query: Given the entry Cc1c(C(=O)O)cc([N+](=O)[O-])cc1[N+](=O)[O-] , answer whether its solvation free energy, 298 K meets or surpasses -9 kcal/mol.
result: n

query: Given the entry O=C(c1ccccc1)C(O)c1ccccc1 (stereo unspecified) , answer whether its solvation free energy, 298 K meets or surpasses -9 kcal/mol.
result: n

query: Given the entry COc1ccc2cc(C(C)C(=O)O)ccc2c1 (stereo unspecified) , answer whether its solvation free energy, 298 K meets or surpasses -9 kcal/mol.
result: n

query: Given the entry CC(C)CCO , answer whether its solvation free energy, 298 K meets or surpasses -9 kcal/mol.
result: y

query: Given the entry CCCCCCCCCCCCCCCCCC , answer whether its solvation free energy, 298 K meets or surpasses -9 kcal/mol.
result: n

----------
test: solvent given as SMILES; conditions: in Brc1ccccc1
Cut-off -5 kcal/mol on solvation free energy, 298 K, inclusive. At or above means Fulfilled; below means Not fulfilled.

{"columns": ["compound.string", "assigned.label"],
 "data": [
  ["CCC1CCCCC1", "Not fulfilled"],
  ["OC1CCCCC1", "Not fulfilled"],
  ["CCC", "Fulfilled"],
  ["CC(C)(C)Br", "Fulfilled"],
  ["CCN(CC)CC", "Fulfilled"],
  ["[HH]", "Fulfilled"]
]}

query: Given the entry CC(C)CCO , answer whether its solvation free energy, 298 K meets or surpasses -5 kcal/mol.
result: Not fulfilled

query: Given the entry OCCCl , answer whether its solvation free energy, 298 K meets or surpasses -5 kcal/mol.
result: Fulfilled

----------
experiment: solvent given as SMILES; details: in CCCCCCC
Cut-off -4 kcal/mol on solvation free energy, 298 K, inclusive. At or above means true; below means false.

query: Given the entry c1ccc2c(c1)ccc1ccccc12 , answer whether its solvation free energy, 298 K meets or surpasses -4 kcal/mol.
result: false

----------
assay: solvent given as SMILES; conditions: in CCCCO
Cut-off -9 kcal/mol on solvation free energy, 298 K, inclusive. At or above means yes; below means no.

{"columns": ["compound", "assigned.label"],
 "data": [
  ["O=C(O)c1ccccc1O", "no"],
  ["O", "yes"],
  ["O=C1c2ccccc2-c2ccccc21", "no"],
  ["O=[N+]([O-])c1cccc(Cl)c1Cl", "yes"],
  ["NC(N)=S", "no"]
]}

Below: the item to evaluate.
query: Given the entry Cc1cccc(C(=O)O)c1 , answer whether its solvation free energy, 298 K meets or surpasses -9 kcal/mol.
result: no

----------
experiment: solvent given as SMILES; settings: in [2H]O[2H]
outcome.measure: solvation free energy, 298 K (kcal/mol)
I only need the number, in kcal/mol, no unit after it.

For record OC1CCCCC1 the listed solvation free energy, 298 K is -5.7

For record O=C1CCCC1 the listed solvation free energy, 298 K is -4.75

For record C1COCCO1 the listed solvation free energy, 298 K is -5.02

For record CCCCCl the listed solvation free energy, 298 K is -0.73

For record CCCCCCOC(C)=O the listed solvation free energy, 298 K is -2.44

For record CCC#N the listed solvation free energy, 298 K is -3.79

For record ClC(Cl)C(Cl)Cl the listed solvation free energy, 298 K is -2.59

For record ClC(Cl)Cl the listed solvation free energy, 298 K is -1.26

For record CC(=O)OCCC(C)C the listed solvation free energy, 298 K is -2.36

For record CC(=O)O the listed solvation free energy, 298 K is -6.55

For record CC(C)CCO the listed solvation free energy, 298 K is -4.43
